target: Purine nucleoside phosphorylase (Homo sapiens, UniProt P00491)
Sequence (P00491 whole entry): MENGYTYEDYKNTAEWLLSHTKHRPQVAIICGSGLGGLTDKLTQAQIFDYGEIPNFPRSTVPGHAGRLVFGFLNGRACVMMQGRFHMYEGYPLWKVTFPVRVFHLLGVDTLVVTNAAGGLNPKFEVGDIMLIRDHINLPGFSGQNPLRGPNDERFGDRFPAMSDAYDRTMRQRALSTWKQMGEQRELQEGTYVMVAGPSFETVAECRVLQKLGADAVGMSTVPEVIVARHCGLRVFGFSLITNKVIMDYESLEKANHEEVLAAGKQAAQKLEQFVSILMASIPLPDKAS
test.readout: Kd
I'd appreciate it if you included the unit after the number.

// lookup Kd | system=Purine nucleoside phosphorylase (Homo sapiens, UniProt P00491) | key= O=c1[nH]cnc2c(CN3CCC(O)C3)c[nH]c12 (stereo unspecified)
383 pM

Where do these numbers come from? They come from BindingDB's records for doi:10.1021/bi9005896.
